# Tested on: Wnt5a (protein binding on small-molecule microarray)
# procedureDetails: Wnt5a binders on small-molecule microarray, primary screen, biophysical, 635/667 nm fluorescence (AID 1142);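 further: fluorescence read at 667 nm with signal to noise per printed feature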
# conditionContext: 635 nm fluorescence, higher = more signal
The following molecules are listed with their measured composite z-score values.
Answer with a bare number; do not write a unit.

In the examples that follow, each entry is paired with its recorded composite z-score.
| molecule | composite z-score |
| --- | --- |
| O=C(NN=C1C[C@@H](O)[C@@H](O)[C@@H]2[C@@H]3C(=O)N(C4CCCCC4)C(=O)[C@@H]3CC[C@@H]12)OCc1ccccc1 | -0.03 |
| COc1ccc(O[C@@H]2[C@H](O)CO[C@@H]2C=Cc2ccccc2)cc1 | 0.059 |
| COC(=O)NCC=Cc1nc(CCCO)co1 | 0.134 |
| C=CC[C@@H]1C=C[C@H](ON=C(C)CCN2CCc3nc(-c4ccccc4)c(-c4ccccc4)cc3C2)[C@@H](CO)O1 | 0.0399 |
| CCOC(=O)[C@H](CC(C)C)NC(=O)CCC1CC(OC(=O)NCc2ccc3c(c2)OCO3)CC2(CCCC(COC(=O)NCC3CCCCC3)O2)O1 (stereo partly drawn) | 0.222 |
| C[n+]1ccc(-c2ccc(CO)cc2)cc1 | -0.0113 |
| O=C1C2=CC[C@H]3C(=O)N(c4cccc(Oc5ccccc5)c4)C(=O)[C@H]3[C@H]2[C@H](O)[C@@H]2O[C@H]12 | 0.0049 |

Okay, now this molecule:
Prompt: Dear colleague, I am looking for the recorded composite z-score of the following molecule: "CCN1C(=O)[C@@H]2[C@H]3C(=CC[C@@H]2C1=O)C1(OCCCO1)[C@H]1O[C@H]1[C@H]3O"
Response: 0.36

----------
# System: Sonic hedgehog protein (Shh)
# procedureDetails: small-molecule binders of Shh protein, primary screen, biochemical, small-molecule microarray, 635/667 nm fluorescence (AID 1151);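 further: Shh protein binding to compounds spotted on small-molecule microarray slides; score combines spot fluorescence intensity with signal-to-noise across triplicate slides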
# conditionContext: small-molecule microarray binding, 635 nm fluorescence; higher = more signal
Use MET when the recorded composite z-score is no lower than 1; use NOT MET when it is lower.

| compound | className |
| --- | --- |
| CO[C@H]1COC(=O)[C@@H](C)COC(=O)[C@H](C)NC(=O)CC=C[C@H]1C | MET |
| C[C@H]1CC[C@H]2C(=O)OC(CO)CN2[C@@H]1c1ccc(Br)cc1 (stereo partly drawn) | NOT MET |
| CCOC(=O)[C@H](CC(C)C)NC(=O)CCC1CC(OC(=O)NCCc2ccc(F)cc2)CC2(CCCC(COC(=O)NCCC(C)C)O2)O1 (stereo partly drawn) | NOT MET |
| CON=C(C)CCC(=O)OC[C@H]1O[C@H](c2ccccc2)C=C[C@@H]1Oc1ccc(OC)cc1 | NOT MET |
| CO[C@@H]1COC(=O)CC=C[C@H](C)[C@H](OC)COC(=O)[C@H](C)NC(=O)CC=C[C@H]1C | MET |
| C=CC[C@@H]1C=C[C@H](ON=C(C)CCN2CCc3nc(-c4ccccc4)c(-c4ccccc4)cc3C2)[C@@H](CO)O1 | MET |
| COC(=O)CC=C[C@@H](C)[C@@H](C=NOCC[C@@H]1C=C[C@H](OC(C)=O)[C@@H](COC(C)=O)O1)OC | NOT MET |

Prompt: Decide: composite z-score of "CCN1C(=O)[C@@H]2[C@H]3C(=CC[C@@H]2C1=O)C1(OCCCO1)[C@H]1O[C@H]1[C@H]3O" >= 1?
Response: NOT MET
